target: Phosphodiesterase 1 (Homo sapiens, UniProt P54750+Q01064+Q14123); assay: Inhibitory activity against calmodulin-dependent Phosphodiesterase was reported.; assay type: protein assay, Canis lupus familiaris
METRIC: IC50 (nM)

Sample answers from the record:
{"columns": ["STRUCTURE", "IC50 (nM)"],
 "data": [
  ["CC/C(=C(\\c1ccc(I)cc1)c1ccc(OCCCCCN2CCCC2)cc1)c1ccccc1", 800],
  ["CC/C(=C(\\c1ccc(I)cc1)c1ccc(OCCCCCCN2CCCC2)cc1)c1ccccc1", 500],
  ["CC/C(=C(\\c1ccc(I)cc1)c1ccc(OCCCCCN(C)C)cc1)c1ccccc1", 600],
  ["CC/C(=C(\\c1ccc(I)cc1)c1ccc(OCCCCN(C)C)cc1)c1ccccc1", 2200]
]}

P: CC/C(=C(\c1ccc(I)cc1)c1ccc(OCCCCCCCCN2CCCC2)cc1)c1ccccc1
Q: CC/C(=C(\c1ccc(I)cc1)c1ccc(OCCCN2CCCC2)cc1)c1ccccc1
R: CC/C(=C(\c1ccc(I)cc1)c1ccc(OCCCCCCCCCCN2CCCC2)cc1)c1ccccc1
S: CC/C(=C(\c1ccc(I)cc1)c1ccc(OCCCCCCN(C)C)cc1)c1ccccc1
Exercise: Hey, quick one: sort these by IC50, largest value first please. Answer by listing the labels in the order asked for.
Solution: R, Q, S, P
(R: 1600 nM, Q: 1100 nM, S: 400 nM, P: 200 nM)

* * *

target: Estrogen receptor (Rattus norvegicus) (UniProt P06211+Q62986)
METRIC: Binding affinity

{"columns": ["STRUCTURE", "RESULT"],
 "data": [
  ["CC/C(=C(\\c1ccc(I)cc1)c1ccc(OCCCCCN2CCCC2)cc1)c1ccccc1", 8],
  ["CC/C(=C(\\c1ccc(I)cc1)c1ccc(OCCCCCCCCN(C)C)cc1)c1ccccc1", 2],
  ["CC/C(=C(\\c1ccc(I)cc1)c1ccc(OCCCCN2CCCC2)cc1)c1ccccc1", 9]
]}

a: CC/C(=C(\c1ccc(I)cc1)c1ccc(OCCCCCCCCCN2CCCC2)cc1)c1ccccc1
b: CC/C(=C(\c1ccc(I)cc1)c1ccc(OCCCN(C)C)cc1)c1ccccc1
c: CC/C(=C(\c1ccc(I)cc1)c1ccc(OCCCCCCN2CCCC2)cc1)c1ccccc1
d: CC/C(=C(\c1ccc(I)cc1)c1ccc(OCCCCN(C)C)cc1)c1ccccc1
Exercise: Hey, quick one: sort these by Binding affinity, largest value first please. Answer by listing the labels in the order asked for.
Solution: d, b, c, a
